TARGET_OR_TEST_SYSTEM: MMP-1 (Homo sapiens, UniProt P03956)
Construct: purchased Calbiochem
Sequence (P03956 100-469): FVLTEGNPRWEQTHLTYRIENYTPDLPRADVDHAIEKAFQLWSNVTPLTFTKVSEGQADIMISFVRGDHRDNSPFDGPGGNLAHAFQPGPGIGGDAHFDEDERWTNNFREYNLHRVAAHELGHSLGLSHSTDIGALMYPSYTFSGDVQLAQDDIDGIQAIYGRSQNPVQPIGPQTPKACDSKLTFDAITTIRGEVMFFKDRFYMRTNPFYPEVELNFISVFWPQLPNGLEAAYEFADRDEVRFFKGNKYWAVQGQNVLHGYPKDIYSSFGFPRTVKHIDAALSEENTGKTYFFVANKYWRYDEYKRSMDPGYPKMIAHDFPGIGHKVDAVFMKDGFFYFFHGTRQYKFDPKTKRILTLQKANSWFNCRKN
ASSAY_DETAILS: In vitro fluorometric inhibition assay of MMPs: MMP-1
Assay type: biochemical
TEST_CONTEXT: Table I, cells without (*)
ENDPOINT_NAME: pIC50
For clarity, pIC50 is expressed as the negative log10 of concentration in mol/L.

Solved cases (4 shown):
COMPOUND	pIC50
O=C1CC(c2ccccc2Sc2ccc(-c3ccccc3)cc2)C(=O)N1O (centres unmarked)	4.08
O=C(O)Cc1ccccc1Sc1ccc(-c2ccccc2)cc1	3.48
O=C(O)CC(C(=O)O)c1ccccc1Sc1ccc(-c2ccccc2)cc1 (centres unmarked)	3.72
O=C(O)CCC(C(=O)O)c1ccccc1Sc1ccc(-c2ccccc2)cc1 (centres unmarked)	3.72

As a next step, examine the compound that follows.
Any idea what pIC50 came out for O=C1CC(c2ccccc2S(=O)(=O)c2ccc(-c3ccccc3)cc2)C(=O)N1O (centres unmarked) on MMP-1 (Homo sapiens, UniProt P03956)?
3.73

====

TARGET_OR_TEST_SYSTEM: MMP-9 (Homo sapiens)
Construct: gift of Prof; Gillian Murphy (Oncology Department, Cambridge University, UK)
Sequence (P14780 107-707 limits assumed): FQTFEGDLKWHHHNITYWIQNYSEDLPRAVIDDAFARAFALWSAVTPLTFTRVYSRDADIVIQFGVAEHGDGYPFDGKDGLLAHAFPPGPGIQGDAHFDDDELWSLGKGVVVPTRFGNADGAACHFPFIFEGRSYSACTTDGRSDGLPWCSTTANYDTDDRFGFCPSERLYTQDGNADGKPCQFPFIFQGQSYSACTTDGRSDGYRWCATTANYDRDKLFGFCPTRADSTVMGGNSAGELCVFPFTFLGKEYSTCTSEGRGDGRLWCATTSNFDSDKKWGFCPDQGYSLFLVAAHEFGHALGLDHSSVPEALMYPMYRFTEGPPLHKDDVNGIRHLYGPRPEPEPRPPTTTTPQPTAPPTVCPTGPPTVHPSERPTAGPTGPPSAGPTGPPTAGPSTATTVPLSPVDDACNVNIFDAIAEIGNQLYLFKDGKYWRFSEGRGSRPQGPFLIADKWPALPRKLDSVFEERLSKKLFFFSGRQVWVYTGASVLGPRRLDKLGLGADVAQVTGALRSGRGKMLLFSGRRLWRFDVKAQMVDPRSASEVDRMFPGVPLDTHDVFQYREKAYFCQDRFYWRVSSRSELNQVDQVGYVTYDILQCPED
ASSAY_DETAILS: In vitro fluorometric inhibition assay of MMPs: MMP-9
Type: biochemical
TEST_CONTEXT: Table IV
ENDPOINT_NAME: IC50 (nM)
Could you give me the number in nM? Just the number is fine.

Any idea what IC50 came out for `COc1ccc(-c2ccc(Sc3ccccc3CC(=O)NO)cc2)cc1` on MMP-9 (Homo sapiens)?
120

====

TARGET_OR_TEST_SYSTEM: MMP-2 (Homo sapiens)
Construct: gift of Prof; Gillian Murphy (Oncology Department, Cambridge University, UK)
Sequence (P08253 110-660): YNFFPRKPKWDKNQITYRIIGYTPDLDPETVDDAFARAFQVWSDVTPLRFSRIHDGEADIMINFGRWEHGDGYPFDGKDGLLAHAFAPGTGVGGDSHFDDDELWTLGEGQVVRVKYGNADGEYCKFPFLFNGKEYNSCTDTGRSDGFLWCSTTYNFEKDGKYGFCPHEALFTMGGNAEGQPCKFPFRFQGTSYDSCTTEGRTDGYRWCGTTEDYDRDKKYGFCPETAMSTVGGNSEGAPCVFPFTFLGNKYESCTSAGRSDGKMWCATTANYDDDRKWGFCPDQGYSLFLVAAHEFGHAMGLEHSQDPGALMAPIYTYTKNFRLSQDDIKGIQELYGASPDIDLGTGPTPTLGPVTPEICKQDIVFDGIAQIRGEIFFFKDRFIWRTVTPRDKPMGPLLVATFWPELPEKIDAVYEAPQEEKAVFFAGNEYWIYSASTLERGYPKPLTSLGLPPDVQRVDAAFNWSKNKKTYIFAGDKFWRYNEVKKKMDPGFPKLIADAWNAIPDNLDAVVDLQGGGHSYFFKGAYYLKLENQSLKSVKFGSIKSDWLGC
ASSAY_DETAILS: In vitro fluorometric inhibition assay of MMPs: MMP-2
Type: biochemical
TEST_CONTEXT: Table III, cells marked (*)
ENDPOINT_NAME: pIC50
For clarity, pIC50 is expressed as the negative log10 of concentration in mol/L.

1) COc1ccc(Oc2ccc(S(=O)(=O)c3ccccc3C(=O)NS(C)(=O)=O)cc2)cc1 4.69
2) COc1ccc(Oc2ccc(Sc3ccccc3CC(=O)NS(C)(=O)=O)cc2)cc1 3.74
3) COc1ccc(Oc2ccc(S(=O)(=O)c3ccccc3CC(=O)NS(C)(=O)=O)cc2)cc1 4.10

As a next step, examine the compound that follows.
Which pIC50 value is on record for `COc1ccc(Oc2ccc(Sc3ccccc3C(=O)NS(C)(=O)=O)cc2)cc1` ?
4.91

These entries and their values trace back to patent US8093386B2.
